molecular target: T1, PD-1 protein (human, UniProt Q15116 25-167, limits assumed); experiment: blocking ELISA, PD-1 coated, competitor biotin PD-L1
T1 construct: also called human PD-1
T1 sequence (Q15116 25-167 limits assumed): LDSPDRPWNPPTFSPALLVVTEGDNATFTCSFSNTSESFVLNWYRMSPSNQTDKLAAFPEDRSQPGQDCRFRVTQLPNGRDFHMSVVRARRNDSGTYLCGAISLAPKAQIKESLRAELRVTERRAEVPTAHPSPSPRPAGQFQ
Here the recorded OD450 of PD-L1 bound, antibody at 2.42 µg/mL is given for each entry.
propertyName: OD450 of PD-L1 bound, antibody at 2.42 µg/mL (OD450)

[[record]]
binder = "504#SS1 (Fc fusion, VHH-FC construct from HEK293 cells; not shown: The (G4S)3 linker leading to it is left out with it) VHH: QVQLVESGGGLVQAGGSLRLSCAASGLTFSDFAMGWFRQAPGKEREFVAAISWSGGQTYNVESAKGRFTISRDNAKNTVYLQMNKLKPDDTAVYYCAASTMVVTTVAADYKYWGQGTQVTVSS"
u = "OD450"
testresult = 3.26

[[record]]
binder = "504#SS22 (Fc fusion, not shown: a dimerising Fc or GST; small tags and cut ends, VHH-FC construct from HEK293 cells) VHH: QVQLVETGGGLVQAGGSLRLSCAASGRTFSSYAMGWFRQAPGKERDFVAGISGSGGNTPYAESVKGRFTISRDNAKNTVALQMNSLKPEDTAVYYCAAKFTSSSFYYRSPREYSSWGQGTQVTVSS"
u = "OD450"
testresult = 3.32

[[record]]
binder = "504#SS28 (Fc fusion, not shown: a dimerising Fc or GST; small tags and cut ends, VHH-FC construct from HEK293 cells) VHH: QVQLVESGGGSVQPGGSLRLSCAVSGFTLDYYDIGWFRQAPGKERDWISCISSSDGSQYYADSVKDRFFISRDNAKNTVYLQMNSLEPGDTAVYYCAADFDTYRFCSGFGPDAYSSWGQGTQVIVSS"
u = "OD450"
testresult = 3.31

[[record]]
binder = "504#SS8 (Fc fusion, VHH-FC construct from HEK293 cells; not shown: The (G4S)3 linker leading to it is left out with it) VHH: EVQVVESGGGLVQAGGSLRLSCTASGRTFSNYAMGWFRQAPGKEREFVASVTWGGSGTFYADSVKGRFTISRDNIKNTVYLQMNSLKPEDTAVYYCAADNVGDSWYSDDYKYWGQGTQVTVSS"
u = "OD450"
testresult = 3.33

[[record]]
binder = "504#SS16 (Fc fusion, not shown: a dimerising Fc or GST; small tags and cut ends, VHH-FC construct from HEK293 cells) VHH: EVQVVESGGGLVQAGGSLRLSCAVSGRTFSSYVMGWFRQAPGKERDFVAAISRSGGRTWYADSVKGRFTISFDNAKNTVYLQMNSLKPEDTASYYCNTDYTFAKLTAPDRRNDDWGQGTQVTVSS"
u = "OD450"
testresult = 3.22

[[record]]
binder = "504#SS15 (Fc fusion, not shown: a dimerising Fc or GST; small tags and cut ends, VHH-FC construct from HEK293 cells) VHH: QVQLVESGGGLVQPGGSLRLSCAASGFTFSNYAMTWYRQAPGKERELVAAISSAGYTTTYAGSVKGRFTISRDNAKNTVYLQMNSLNPEDTAVYYCNAGRLSYGGSYYPNDDYWGQGTQVTVSS"
u = "OD450"
testresult = 3.57

[[record]]
binder = "504#SS14 (Fc fusion, not shown: a dimerising Fc or GST; small tags and cut ends, VHH-FC construct from HEK293 cells) VHH: QVQLVESGGGLVQPGGSLRLSCVASGFTFSSYWMYWVRQAPGKGLEWVSAIDTTGGSTAYTHSVKGRFTISRDNARNTLYLQMNNLKSEDTAVYYCANSTYFNDDPEYDRWGQGTQVTVSS"
u = "OD450"
testresult = 3.27

[[record]]
binder = "504#SS2 (Fc fusion, VHH-FC construct from HEK293 cells; not shown: The (G4S)3 linker leading to it is left out with it) VHH: EVQVVESGGGLVKTGDSLRLSCAASGGTISGYEMGWFRQAPGKEREFVAGISRNGRSTGYSDSAKDRFTISRDNAKNTVYLQMNSLKPEDTAVYYCAAGLKADYGDSYVDTSTRNYNYWGQGTQVTVSS"
u = "OD450"
testresult = 3.31

